# system_tested: dAsCas12a S542R (Acidaminococcus sp., UniProt U2UMQ6 1-1307, S542R;D908A;E993A;D1235A)
# test_protocol: Spec-seq (native PAGE EMSA with sequencing of bound and unbound); 25 mM Tris-HCl pH 7.4, 150 mM KCl, 5 mM MgCl2, 10% glycerol, 1 mM DTT, 40 ng/uL salmon sperm DNA; 400 nM Cas12a, 480 nM crRNA, 50 nM library, 37 C 1 h; native PAGE at room temperature; high values mean tight binding;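 also: relative affinity from the bound to unbound sequence frequency ratio in Spec-seq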
# assay_conditions: protein: recombinant
Exercise: for every item that follows, state its recorded binding signal.
// units = lnKA; emit number, no label

Input: Bench note: what binding signal did GCAC (dsDNA) DNA 1: GCTATCTAGTGCTCAGTACGCACTGGCACAGGAAACTTCTGGCAGGACCAGGTCATGAGATCGGAAGAGCACACGTCTGAACTCCAGTCA DNA 2: TGACTGGAGTTCAGACGTGTGCTCTTCCGATCTCATGACCTGGTCCTGCCAGAAGTTTCCTGTGCCAGTGCGTACTGAGCACTAGATAGC RNA: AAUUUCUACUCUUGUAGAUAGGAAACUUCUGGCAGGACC show?
Output: -8.62

Input: Bench note: what binding signal did GGCC (dsDNA) DNA 1: GCTATCTAGTGCTCAGTACGCACTGGGCCAGGAAACTTCTGGCAGGACCAGGTCATGAGATCGGAAGAGCACACGTCTGAACTCCAGTCA DNA 2: TGACTGGAGTTCAGACGTGTGCTCTTCCGATCTCATGACCTGGTCCTGCCAGAAGTTTCCTGGCCCAGTGCGTACTGAGCACTAGATAGC RNA: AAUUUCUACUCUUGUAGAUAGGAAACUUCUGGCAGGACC show?
Output: -8.47

Input: Bench note: what binding signal did AATA (dsDNA) DNA 1: GCTATCTAGTGCTCAGTACGCACTGAATAAGGAAACTTCTGGCAGGACCAGGTCATGAGATCGGAAGAGCACACGTCTGAACTCCAGTCA DNA 2: TGACTGGAGTTCAGACGTGTGCTCTTCCGATCTCATGACCTGGTCCTGCCAGAAGTTTCCTTATTCAGTGCGTACTGAGCACTAGATAGC RNA: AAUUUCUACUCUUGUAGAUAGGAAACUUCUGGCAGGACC show?
Output: -8.13

Input: Bench note: what binding signal did GAGA (dsDNA) DNA 1: GCTATCTAGTGCTCAGTACGCACTGGAGAAGGAAACTTCTGGCAGGACCAGGTCATGAGATCGGAAGAGCACACGTCTGAACTCCAGTCA DNA 2: TGACTGGAGTTCAGACGTGTGCTCTTCCGATCTCATGACCTGGTCCTGCCAGAAGTTTCCTTCTCCAGTGCGTACTGAGCACTAGATAGC RNA: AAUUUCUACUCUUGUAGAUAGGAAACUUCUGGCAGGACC show?
Output: -8.5

Input: Bench note: what binding signal did CTAG (dsDNA) DNA 1: GCTATCTAGTGCTCAGTACGCACTGCTAGAGGAAACTTCTGGCAGGACCAGGTCATGAGATCGGAAGAGCACACGTCTGAACTCCAGTCA DNA 2: TGACTGGAGTTCAGACGTGTGCTCTTCCGATCTCATGACCTGGTCCTGCCAGAAGTTTCCTCTAGCAGTGCGTACTGAGCACTAGATAGC RNA: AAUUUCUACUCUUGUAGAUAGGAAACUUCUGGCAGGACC show?
Output: -8.57
